target: AChE (Homo sapiens, UniProt P22303); assay: AChE inhibition (DTNB, acetylthiocholine); type: biochemical; settings: read-out: AChE (IC50, μM) ± SD
Sequence (P22303 32-614): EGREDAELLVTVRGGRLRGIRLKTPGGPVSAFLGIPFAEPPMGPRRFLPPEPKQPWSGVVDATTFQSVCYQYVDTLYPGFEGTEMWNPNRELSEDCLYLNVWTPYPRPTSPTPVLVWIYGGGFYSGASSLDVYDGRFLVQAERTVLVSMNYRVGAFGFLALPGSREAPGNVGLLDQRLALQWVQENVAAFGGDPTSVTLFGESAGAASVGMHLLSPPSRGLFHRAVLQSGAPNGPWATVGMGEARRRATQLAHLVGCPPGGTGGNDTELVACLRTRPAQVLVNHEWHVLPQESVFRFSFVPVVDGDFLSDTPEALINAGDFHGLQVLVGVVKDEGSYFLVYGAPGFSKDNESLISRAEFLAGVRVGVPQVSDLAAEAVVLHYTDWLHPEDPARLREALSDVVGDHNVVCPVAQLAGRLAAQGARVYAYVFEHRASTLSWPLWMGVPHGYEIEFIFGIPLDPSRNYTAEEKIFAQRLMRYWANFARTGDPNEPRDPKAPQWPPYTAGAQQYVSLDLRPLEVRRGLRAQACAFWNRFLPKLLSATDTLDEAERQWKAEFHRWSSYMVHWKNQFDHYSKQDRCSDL
measure: IC50 (µM)
Answers are plain numbers, in µM.

Quick one: give me IC50 for each item below, same order please.
1. CN1CC(c2ccc(Cl)cc2)C2(CN(S(C)(=O)=O)C/C(=C\c3ccc(Cl)cc3)C2=O)C12C(=O)Nc1ccc(Cl)cc12 (stereo not drawn) [Compound 6j]
2. CCS(=O)(=O)N1C/C(=C\c2ccc(Cl)cc2)C(=O)C2(C1)C(c1ccc(Cl)cc1)CN(C)C21C(=O)Nc2ccc(Cl)cc21 (stereo not drawn) [Compound 6l]

1. 42.8
2. 23.6

Report IC50 for CCS(=O)(=O)N1C/C(=C\c2ccc(F)cc2)C(=O)C2(C1)C(c1ccc(F)cc1)CN(C)C21C(=O)Nc2ccccc21 (stereo not drawn) [Compound 6g]
2.46

---

target: EGFR (Homo sapiens); construct: Western blot technique was considered for EGFR and VEGFR-2 properties determination; endogenous in cells; host or cells: MCF7 (breast cancer cell line); type: cell-based; settings: western blot, MCF7, compound at its MTT IC50; control RQ 3.4461
Sequence (P00533 25-1210): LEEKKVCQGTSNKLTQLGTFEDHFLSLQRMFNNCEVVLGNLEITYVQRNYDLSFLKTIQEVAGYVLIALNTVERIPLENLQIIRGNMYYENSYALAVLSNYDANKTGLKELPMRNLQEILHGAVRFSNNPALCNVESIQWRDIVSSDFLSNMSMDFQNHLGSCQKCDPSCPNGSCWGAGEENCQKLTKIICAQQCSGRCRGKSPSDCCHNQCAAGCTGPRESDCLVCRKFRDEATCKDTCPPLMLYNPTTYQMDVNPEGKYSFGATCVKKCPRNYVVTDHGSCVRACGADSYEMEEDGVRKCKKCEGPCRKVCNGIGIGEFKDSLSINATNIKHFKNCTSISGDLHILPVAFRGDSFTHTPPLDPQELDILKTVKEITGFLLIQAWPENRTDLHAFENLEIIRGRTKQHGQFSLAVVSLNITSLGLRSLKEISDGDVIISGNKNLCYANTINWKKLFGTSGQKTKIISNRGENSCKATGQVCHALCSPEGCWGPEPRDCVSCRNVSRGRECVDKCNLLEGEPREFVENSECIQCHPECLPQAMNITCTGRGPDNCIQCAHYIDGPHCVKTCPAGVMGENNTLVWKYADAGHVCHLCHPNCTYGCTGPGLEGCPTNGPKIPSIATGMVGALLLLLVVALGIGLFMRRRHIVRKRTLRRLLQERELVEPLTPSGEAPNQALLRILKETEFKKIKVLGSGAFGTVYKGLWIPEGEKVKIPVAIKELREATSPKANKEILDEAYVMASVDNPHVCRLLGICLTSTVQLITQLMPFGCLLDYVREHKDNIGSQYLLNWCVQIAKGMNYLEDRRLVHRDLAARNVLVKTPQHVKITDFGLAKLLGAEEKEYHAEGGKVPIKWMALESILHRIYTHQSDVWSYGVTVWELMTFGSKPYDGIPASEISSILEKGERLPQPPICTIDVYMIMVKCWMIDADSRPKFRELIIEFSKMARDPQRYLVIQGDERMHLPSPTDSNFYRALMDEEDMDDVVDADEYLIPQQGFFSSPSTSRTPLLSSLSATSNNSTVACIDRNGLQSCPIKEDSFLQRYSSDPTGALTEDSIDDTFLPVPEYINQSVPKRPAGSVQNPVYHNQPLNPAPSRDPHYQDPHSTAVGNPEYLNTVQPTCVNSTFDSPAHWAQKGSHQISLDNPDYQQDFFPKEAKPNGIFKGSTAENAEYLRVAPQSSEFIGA
measure: EGFR RQ (relative quantification)
One number for each entry.

Observe how each entry below is paired with its result.
>  <compound>
CN1CC(c2ccc(F)cc2)C2(CN(S(C)(=O)=O)C/C(=C\c3ccc(F)cc3)C2=O)C12C(=O)Nc1ccccc12 (stereo not drawn)

>  <EGFR RQ (relative quantification)>
1.147

$$$$
>  <compound>
CCS(=O)(=O)N1C/C(=C\c2ccccc2)C(=O)C2(C1)C(c1ccccc1)CN(C)C21C(=O)Nc2ccc(Cl)cc21 (stereo not drawn)

>  <EGFR RQ (relative quantification)>
1.2774

$$$$
>  <compound>
CCS(=O)(=O)N1C/C(=C\c2ccc(F)cc2)C(=O)C2(C1)C(c1ccc(F)cc1)CN(C)C21C(=O)Nc2ccccc21 (stereo not drawn)

>  <EGFR RQ (relative quantification)>
1.28

$$$$

Record EGFR RQ (relative quantification) per entry; entries follow.
1. CN1CC(c2ccc(Cl)cc2)C2(CN(S(C)(=O)=O)C/C(=C\c3ccc(Cl)cc3)C2=O)C12C(=O)Nc1ccccc12 (stereo not drawn)
2. CCS(=O)(=O)N1C/C(=C\c2ccccc2)C(=O)C2(C1)C(c1ccccc1)CN(C)C21C(=O)Nc2ccccc21 (stereo not drawn)
3. CN1CC(c2ccc(Cl)cc2)C2(CN(S(C)(=O)=O)C/C(=C\c3ccc(Cl)cc3)C2=O)C12C(=O)Nc1ccc(Cl)cc12 (stereo not drawn)
4. CN1CC(c2ccccc2)C2(CN(S(C)(=O)=O)C/C(=C\c3ccccc3)C2=O)C12C(=O)Nc1ccc(Cl)cc12 (stereo not drawn)
5. CN1CC(c2ccccc2)C2(CN(S(C)(=O)=O)C/C(=C\c3ccccc3)C2=O)C12C(=O)Nc1ccccc12 (stereo not drawn)
6. COc1ccc(/C=C2\CN(S(C)(=O)=O)CC3(C2=O)C(c2ccc(OC)c(OC)c2)CN(C)C32C(=O)Nc3ccccc32)cc1OC (stereo not drawn)
7. CCS(=O)(=O)N1C/C(=C\c2ccc(F)cc2)C(=O)C2(C1)C(c1ccc(F)cc1)CN(C)C21C(=O)Nc2ccc(Cl)cc21 (stereo not drawn)

[1.077, 1.0493, 1.2634, 1.5804, 1.1593, 1.047, 1.13]

---

molecular target: BChE (Homo sapiens); assay: BChE inhibition (DTNB, butyrylthiocholine iodide)
Sequence (P06276 29-602, species assumed): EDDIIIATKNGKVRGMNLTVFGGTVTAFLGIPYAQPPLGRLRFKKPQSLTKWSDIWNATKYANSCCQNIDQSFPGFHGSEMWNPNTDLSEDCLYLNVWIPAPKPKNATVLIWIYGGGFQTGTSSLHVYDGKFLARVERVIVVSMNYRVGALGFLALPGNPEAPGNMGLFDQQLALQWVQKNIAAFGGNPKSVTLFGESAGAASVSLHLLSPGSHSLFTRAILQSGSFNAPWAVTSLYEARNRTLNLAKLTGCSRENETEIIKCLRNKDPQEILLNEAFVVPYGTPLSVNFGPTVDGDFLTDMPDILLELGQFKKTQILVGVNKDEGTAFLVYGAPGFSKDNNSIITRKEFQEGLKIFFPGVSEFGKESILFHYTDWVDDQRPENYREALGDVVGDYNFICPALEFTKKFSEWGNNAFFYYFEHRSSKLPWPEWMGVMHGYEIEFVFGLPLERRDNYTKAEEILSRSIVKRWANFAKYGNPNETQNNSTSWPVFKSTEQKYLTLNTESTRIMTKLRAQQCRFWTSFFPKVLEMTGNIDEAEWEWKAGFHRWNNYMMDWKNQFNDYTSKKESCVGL
pIC50: −log10 of the molar value.
Assign T whenever pIC50 does not fall below 5; assign F whenever it does.

Illustrative cases are given below, each with its answer.
>  <compound>
CN1CC(c2ccc(F)cc2)C2(CN(S(C)(=O)=O)C/C(=C\c3ccc(F)cc3)C2=O)C12C(=O)Nc1ccccc12 (stereo not drawn)

>  <answerLabel>
F

$$$$
>  <compound>
CCS(=O)(=O)N1C/C(=C\c2ccc(F)cc2)C(=O)C2(C1)C(c1ccc(F)cc1)CN(C)C21C(=O)Nc2ccccc21 (stereo not drawn)

>  <answerLabel>
T

$$$$
>  <compound>
CN1CC(c2ccccc2)C2(CN(S(C)(=O)=O)C/C(=C\c3ccccc3)C2=O)C12C(=O)Nc1ccccc12 (stereo not drawn)

>  <answerLabel>
F

$$$$
>  <compound>
CN1CC(c2ccccc2)C2(CN(S(C)(=O)=O)C/C(=C\c3ccccc3)C2=O)C12C(=O)Nc1ccc(Cl)cc12 (stereo not drawn)

>  <answerLabel>
F

$$$$
>  <compound>
CN1CC(c2ccc(Cl)cc2)C2(CN(S(C)(=O)=O)C/C(=C\c3ccc(Cl)cc3)C2=O)C12C(=O)Nc1ccc(Cl)cc12 (stereo not drawn)

>  <answerLabel>
F

$$$$

Exam item: decide whether the reported pIC50 for COc1ccc(/C=C2\CN(S(C)(=O)=O)CC3(C2=O)C(c2ccc(OC)c(OC)c2)CN(C)C32C(=O)Nc3ccccc32)cc1OC (stereo not drawn) is at least 5.
T

# check: pIC50 of CN1CC(c2ccc(Br)cc2)C2(CN(S(C)(=O)=O)C/C(=C\c3ccc(Br)cc3)C2=O)C12C(=O)Nc1ccccc12 (stereo not drawn) is greater than or equal to 5
F

Threshold query (pIC50 >= 5) on COc1ccc(/C=C2\CN(S(C)(=O)=O)CC3(C2=O)C(c2ccc(OC)c(OC)c2)CN(C)C32C(=O)Nc3ccc(Cl)cc32)cc1OC (stereo not drawn)
F

Confirm if pIC50 reported for the compound CCS(=O)(=O)N1C/C(=C\c2ccc(Cl)cc2)C(=O)C2(C1)C(c1ccc(Cl)cc1)CN(C)C21C(=O)Nc2ccccc21 (stereo not drawn) is 5 or above.
F

Answer whether pIC50 of CCS(=O)(=O)N1C/C(=C\c2ccccc2)C(=O)C2(C1)C(c1ccccc1)CN(C)C21C(=O)Nc2ccccc21 (stereo not drawn) is greater than or equal to 5.
F

Is it the case that CCS(=O)(=O)N1C/C(=C\c2ccccc2)C(=O)C2(C1)C(c1ccccc1)CN(C)C21C(=O)Nc2ccc(Cl)cc21 (stereo not drawn) has pIC50 reaching or exceeding 5?
F

Is reported pIC50 greater than or equal to 5 here: CN1CC(c2ccc(F)cc2)C2(CN(S(C)(=O)=O)C/C(=C\c3ccc(F)cc3)C2=O)C12C(=O)Nc1ccc(Cl)cc12 (stereo not drawn)
T

---

tested on: MCF7 (breast) cancer cell line; experiment: MTT antiproliferation, MCF7; type: cell-based, human; settings: IC50 of RPE1/IC50 of cancer cell line
Note to self: use T only for SI (selectivity index) MCF7 readings below 3; a reading exactly at 3 still gets F.

>  <compound>
CN1CC(c2ccc(F)cc2)C2(CN(S(C)(=O)=O)C/C(=C\c3ccc(F)cc3)C2=O)C12C(=O)Nc1ccccc12 (centres unmarked)

>  <answerLabel>
F

$$$$
>  <compound>
CCS(=O)(=O)N1C/C(=C\c2ccccc2)C(=O)C2(C1)C(c1ccccc1)CN(C)C21C(=O)Nc2ccc(Cl)cc21 (centres unmarked)

>  <answerLabel>
F

$$$$
>  <compound>
CCS(=O)(=O)N1C/C(=C\c2ccc(F)cc2)C(=O)C2(C1)C(c1ccc(F)cc1)CN(C)C21C(=O)Nc2ccccc21 (centres unmarked)

>  <answerLabel>
F

$$$$

Lab note: confirm whether the reported SI (selectivity index) MCF7 for this compound is below 3, equality not counting. compound: CN1CC(c2ccc(Cl)cc2)C2(CN(S(C)(=O)=O)C/C(=C\c3ccc(Cl)cc3)C2=O)C12C(=O)Nc1ccc(Cl)cc12 (centres unmarked)
T

Is SI (selectivity index) MCF7 strictly under 3 for the entry CCS(=O)(=O)N1C/C(=C\c2ccc(Cl)cc2)C(=O)C2(C1)C(c1ccc(Cl)cc1)CN(C)C21C(=O)Nc2ccccc21 (centres unmarked) ?
F

---

test system: A431 (skin squamous) cancer cell line; experiment: MTT antiproliferation, A431; assay type: cell-based, human; settings: IC50 of RPE1/IC50 of cancer cell line
Exercise: for every item that follows, state its recorded SI (selectivity index) A431.

>  <molecule>
CCS(=O)(=O)N1C/C(=C\c2ccccc2)C(=O)C2(C1)C(c1ccccc1)CN(C)C21C(=O)Nc2ccc(Cl)cc21 (stereo not drawn) [Compound 6d]

>  <measure>
SI (selectivity index) A431

>  <recordedValue>
> 10.1

$$$$
>  <molecule>
CN1CC(c2ccccc2)C2(CN(S(C)(=O)=O)C/C(=C\c3ccccc3)C2=O)C12C(=O)Nc1ccccc12 (stereo not drawn) [Compound 6a]

>  <measure>
SI (selectivity index) A431

>  <recordedValue>
> 1.5

$$$$
>  <molecule>
CCS(=O)(=O)N1C/C(=C\c2ccc(F)cc2)C(=O)C2(C1)C(c1ccc(F)cc1)CN(C)C21C(=O)Nc2ccc(Cl)cc21 (stereo not drawn) [Compound 6h]

>  <measure>
SI (selectivity index) A431

>  <recordedValue>
> 8.3

$$$$
>  <molecule>
CN1CC(c2ccc(F)cc2)C2(CN(S(C)(=O)=O)C/C(=C\c3ccc(F)cc3)C2=O)C12C(=O)Nc1ccc(Cl)cc12 (stereo not drawn) [Compound 6f]

>  <measure>
SI (selectivity index) A431

>  <recordedValue>
3.7

$$$$
>  <molecule>
COc1ccc(/C=C2\CN(S(C)(=O)=O)CC3(C2=O)C(c2ccc(OC)c(OC)c2)CN(C)C32C(=O)Nc3ccc(Cl)cc32)cc1OC (stereo not drawn) [Compound 6o]

>  <measure>
SI (selectivity index) A431

>  <recordedValue>
> 1.1

$$$$

Proceeding to the next molecule to report its SI (selectivity index) A431.
Determine its reported SI (selectivity index) A431: CCS(=O)(=O)N1C/C(=C\c2ccccc2)C(=O)C2(C1)C(c1ccccc1)CN(C)C21C(=O)Nc2ccccc21 (stereo not drawn) [Compound 6c]
> 1.5

The measured values listed here are drawn from paper PMC9380671.
